EC50 [µM], FXa generation assay values by entry
molecular target: human Factor IXa (human, UniProt P00740 47-191; P00740 227-461); assay: cell-based or functional assay
Square brackets hold non-standard residues; d marks the D form. Primed or numbered codes have the meaning given here. Side chains are listed from the residue outwards. Ends that are not written are not given here. * marks the point of attachment. Biotin = O=C1N[C@H]2[C@H](CS[C@H]2CCCCC(=O)*)N1; PEG2(3) = PEG2 spacer carrying biotin on Lys

Binder	EC50 [µM], FXa generation assay
RFQTTQLTCLGSASCLFNLSVR	> 1 µM
RRAPGKLTCK([PEG2(3)-Biotin])ASYCWLFWTGIA (cysteine pairing not given here) [RRAPGKLTCK(PEG2-Biotin)ASYCWLFWTGIA]	< 0.5 µM
MLTCIASYCQLG	> 20 µM
RYQRARLTCLASYCGLLFSMSA	> 15 µM
RRAPGKCTALASYAWCFWTGIA-NH2 (cysteine pairing not given here) [RRAPGKCTALASYAWCFWTGIA-CONH2]	> 1 µM
RRAPGKLTCLASYCWLFWTGIK([PEG2(3)-Biotin]) (not fully specified (C-terminus); printed as RRAPGKLTCLASYCWLFWTGIK(PEG2-Biotin); cysteine pairing not given here) [RRAPGKLTCLASYCWLFWTGIK(PEG2-Biotin)]	< 0.5 µM
RRAPGKLTC[dL]ASYCWLFWTGIA (not fully specified (C-terminus, bridges); printed as RRAPGKLTClASYCWLFWTGIA; cysteine pairing not given here) [RRAPGKLTClASYCWLFWTGIA]	> 1 µM
SGRGGKLTCQASFCQLFGNGLS	< 0.5 µM
SKQGRPISAD[dR]RAAGKLTCLASYCWLFWTGIA (not fully specified; printed as SKQGRPISADrRAAGKLTCLASYCWLFWTGIA; cysteine pairing not given here) [SKQGRPISADrRAAGKLTCLASYCWLFWTGIA]	< 0.5 µM
RRAPGKLTCLASYCWLFWTGYASGKPSRVYVI [RRAPGKLTCLASYCWLF WTGYA SGKPSRVYVI]	> 1 µM
YARDSTLTCQARTCQLVDYLGP	> 50 µM
